System: Saccharomyces cerevisiae
PROCEDURE_DETAILS: protein stability index of tFT-peptide fusion (C-terminal peptide) (PSI (0-1 scale)); higher = more stable (slower turnover)
PARTICULARS: genetic background: wild type; temperature: 30 C
protein stability index values by entry
PROPERTY_LABEL: protein stability index

QUERY_SEQUENCE	READOUT_NUMBER
FFHRISHFLESA [YLR299C-A C-terminal 12 aa]	0.695
QSMLDGNSPESV [DCR2 C-terminal 12 aa]	0.693
VATYLREHEYDQ [AAP1 C-terminal 12 aa]	0.731
IGGLKREAEASA [GDH2 C-terminal 12 aa]	0.719
LLMVSVVNFVPL [YPL182C C-terminal 12 aa]	0.479
FCLQCFKDYCYS [SPO1 C-terminal 12 aa]	0.654
RRAAIHPYFQES [CDC28 C-terminal 12 aa]	0.687
FPKLALVCTIFS [YGR146C-A C-terminal 12 aa]	0.403
KMIESLKSKLKE [CIN5 C-terminal 12 aa]	0.686
SKYNCNIPACCV [YLR122C C-terminal 12 aa]	0.664
KGVIGTNPPITH [MPC3 C-terminal 12 aa]	0.719
ILSWYFLETVAV [YMR254C C-terminal 12 aa]	0.34

Every entry's value here was drawn from the supplement of paper PMC10724198.
